Give pIC50 for every item shown.
Tested on: MIA PaCa-2 cells
Protocol description: Growth inhibition activity on KRAS-G12C mutant cell line (CellTiter-Glo 3D)
Format: cell-based, human
Measurement parameters: Homo sapiens, MIA PaCa-2, 72 h, MIA PaCa-2, 3-day culture with compound; Table 3-1
Answers are plain numbers, as −log10 of the molar value.

For orientation, consider the following solved cases.
>>> reported_value("Cc1cc2c(nc(C)n2C)c2c1-c1cccc3c(C(=O)c4cc(F)c(NC(=O)/C=C/CNC(C)(C)C(=O)N(C)C)c(F)c4)cn(c13)CCN2C")
6.52
>>> reported_value("COCc1nc2c3c(c(OC)cc2n1C)-c1cccn2c(C(=O)c4cc(F)c(NC(=O)/C=C/CN5CCCC5)c(F)c4)cc(c12)CCN3C (single isomer, unassigned)")
7.40

Shift focus to the following entry.
Given CO[C@H]1CC[C@H](NC/C=C/C(=O)Nc2c(F)cc(C(=O)c3cc4c5c(cccn35)-c3c(C(F)(F)F)cc5c(ncn5C)c3N(C)CC4)cc2F)CC1 , state its recorded pIC50.
8.09

---

System: interaction between GMPPNP-bound recombinant K-Ras4B G12C mutant protein and cRAF RAS-binding domain (cRAF-RBD) (Homo sapiens, UniProt P01116, G12C)
Construct: His-tag (N)
Sequence (P01116 with tags, fused parts or gaps isoform P01116-2 G12C): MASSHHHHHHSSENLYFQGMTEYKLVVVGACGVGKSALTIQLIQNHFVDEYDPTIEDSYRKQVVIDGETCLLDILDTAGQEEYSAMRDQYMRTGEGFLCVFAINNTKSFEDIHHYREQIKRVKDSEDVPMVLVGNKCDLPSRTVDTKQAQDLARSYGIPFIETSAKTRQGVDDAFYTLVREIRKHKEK
Protocol description: Inhibitory activity on interaction between KRAS G12C and cRAF (Alpha technology)
Measurement parameters: GMPPNP-bound KRAS G12C incubated with compound 25° C. 1 hour; Table 2-1; read-out: IC50
Mark each entry y if its IC50 sits below 30 nM, and n for all others.

# example entries with known answers
>>> classification("Cc1nc2c3c(c(C(F)(F)F)cc2n1C)-c1cccn2c(C(=O)c4cc(F)c(NC(=O)/C=C/CNC5COC5)c(F)c4)cc(c12)CCO3 [Example 51]")
"n"
>>> classification("Cc1nc2c3c(c(C(F)(F)F)cc2n1C)-c1cccn2c(C(=O)c4ccc(NC(=O)/C=C/CNC5(C)COC5)cn4)cc(c12)CCO3 [Example 60]")
"n"

Continue with the molecule presented below.
Item Cn1cnc2c3c(c(C(F)(F)F)cc21)-c1cccn2c(C(=O)c4cc(F)c(NC(=O)C=CCNC5CCOC5)c(F)c4)cc(c12)CCO3 (stereo not drawn) [Example 120] : IC50 beneath 30 nM, strictly?
y

---

Give pIC50 for every item shown.
Tested on: MIA PaCa-2 cells
Protocol description: Growth inhibition activity on KRAS-G12C mutant cell line (CellTiter-Glo 3D)
Assay type: cell-based, human
Measurement parameters: Homo sapiens, MIA PaCa-2, 72 h, MIA PaCa-2, 3-day culture with compound; Table 3
One number for each entry, as −log10 of the molar value.

>>> reported_value("CO[C@H]1CC[C@H](NC/C=C/C(=O)Nc2c(F)cc(C(=O)c3cn4c5c(cccc35)-c3c(Cl)cc(N5CCCC5=O)cc3OCC4)cc2F)CC1 [Example 8]")
6.80
>>> reported_value("CO[C@H]1CC[C@H](NC/C=C/C(=O)Nc2c(F)cc(C(=O)c3cn4c5c(cccc35)-c3c(C)cc5c(nc(C)n5C)c3OC4)cc2F)CC1 [Example 16]")
7.25
>>> reported_value("CO[C@H]1CC[C@H](NC/C=C/C(=O)Nc2c(F)cc(C(=O)c3cn4c5c(cccc35)-c3c(C)cc5c(nc(C)n5C)c3N(C)C(=O)C4)cc2F)CC1 [Example 47]")
7.23

# map each compound to its pIC50
1. CO[C@H]1CC[C@H](NC/C=C/C(=O)Nc2c(F)cc(C(=O)c3cn4c5c(cccc35)-c3c(C)cc5c(nc(C)n5C)c3OCC(F)(F)C4)cc2F)CC1 [Example 26]
2. COc1cccc2c1-c1cccc3c(C(=O)c4cc(F)c(NC(=O)/C=C/CN[C@H]5CC[C@H](OC)CC5)c(F)c4)cn(c13)CCO2 [Example 10]
3. Cc1nc2c3c(c(C(F)(F)F)cc2n1C)-c1cccn2c(C(=O)c4cc(F)c(NC(=O)/C=C/CNC5(C)CC5)c(F)c4)cc(c12)CCO3 [Example 35]

[6.89, 6.64, 7.85]
